Molecular target: T1, human MAdCAM expressed on cells (human, UniProt Q13477 19-382)
T1 construct: whole, on cells
T1 sequence (looked up): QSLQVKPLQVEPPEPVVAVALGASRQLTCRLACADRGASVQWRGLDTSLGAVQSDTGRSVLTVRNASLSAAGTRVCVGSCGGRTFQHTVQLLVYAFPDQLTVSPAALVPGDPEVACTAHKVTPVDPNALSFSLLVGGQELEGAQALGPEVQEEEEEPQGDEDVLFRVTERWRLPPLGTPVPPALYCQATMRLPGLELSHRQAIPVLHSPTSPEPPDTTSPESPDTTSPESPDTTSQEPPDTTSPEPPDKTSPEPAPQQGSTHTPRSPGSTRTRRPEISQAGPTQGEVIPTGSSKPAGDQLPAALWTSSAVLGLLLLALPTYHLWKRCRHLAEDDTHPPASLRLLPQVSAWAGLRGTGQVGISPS
Experiment: cell binding

{"BINDER": "MAdCAM antibody Table 1 clone 36 (scFv) scFv: QVQLVQSGAEVKKPGASVKVSCKASGYTFTGHYMHWVRQAPGQGLEWMGIINPSGGSTSYAQKFQGRVTMTRDTSTSTVYMELSSLRSEDTAVYYCARDTGYSYGRYYYYGMDVWGQGTTVTVSSGGGGSGGGGSGGGGSGGGGSDIQMTQSPSSLSASVGDRVTITCRASQSIGRWLAWYQQKPGKAPKLLIYDASNLQSGVPSRFSGSGSGTDFTLTISSLQPEDFATYYCQQSYSIPITFGGGTKVEIK", "binding result": "binds"}
{"BINDER": "MAdCAM antibody Table 1 clone 54 (scFv) scFv: EVQLLESGGGLVQPGGSLRLSCAASGFTFGDYAMSWVRQAPGKGLEWVAVVSYDGTNKYYADSVKGRFTISRDNSKNTLYLQMNSLRAEDTAVYYCAKDICSSTSCYFDLWGRGTLVTVSSGGGGSGGGGSGGGGSGGGGSDIQMTQSPSSLSASVGDRVTITCRASQNINNYVNWYQQKPGKAPKLLIYDASNLETGVPSRFSGSGSGTDFTLTISSLQPEDFATYYCQQANSFPPTFGQGTRLEIK", "binding result": "binds"}
